Listing of entries alongside the reported inhibition.
Target: Protein kinase C theta type (Homo sapiens);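 further: each value is a mean inhibition of PKC-theta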
Settings: at 1 µM
value_kind: inhibition (%)

{"columns": ["compound", "value_measured"],
 "data": [
  ["COc1cc(N2CCN(C(C)C)CC2)ccc1Nc1nc(Nc2ccc(F)cc2C(=O)NC[C@@H](O)CO)c2cc[nH]c2n1", 6.2],
  ["COc1cc2ncn(-c3cc(OCc4cccs4)c(C(N)=O)s3)c2cc1OC", 6.01],
  ["c1ccc(-c2n[nH]cc2-c2ccnc(-c3ccc(OCCN4CCOCC4)cc3)c2)nc1", -0.12],
  ["COc1cc(C)c(N(C)C(=O)CN(C)C)cc1Nc1nc(Nc2cccc(F)c2C(N)=O)c2cc[nH]c2n1", -0.14],
  ["CS(=O)(=O)CCNCc1ccc(-c2ccc3ncnc(Nc4ccc(OCc5ccccc5)c(Br)c4)c3c2)o1", 2.41],
  ["NC(=O)Cc1ccccc1Oc1nccc(-c2c(-c3ccc(F)cc3)ncn2C2CCNCC2)n1", -0.38],
  ["COc1ccc2cc(-c3c(-c4ccncc4)nc(-c4ccc(S(C)(=O)=O)cc4C)n3C)ccc2c1", 5.03],
  ["CN1CCN(CCCNc2nc3ccc(Oc4ccc(NC(=O)Nc5cc(C(F)(F)F)ccc5F)cc4)cc3[nH]2)CC1", -0.32],
  ["COc1cccc(-n2cnc3c(N/N=C/c4ccncc4)ncnc32)c1", 4.42],
  ["COc1cccc(/C=N/Nc2ncnc3c2cnn3-c2cccc(OC)c2)c1", 4],
  ["NC(=O)c1cc(-c2ccc(F)cc2)cc(-c2ccncc2)c1N", 3.65],
  ["Fc1ccc(-c2c(-c3ccncc3)nc3n2CCS3)cc1", 4.99],
  ["Cc1ccc(C(=O)NC(C)C)cc1-c1ccc(C(=O)NCC2CC2)cc1", -1.29],
  ["O=C(NCC1CC1)c1ccc(-c2cccc(C(=O)NC3CC3)c2)cc1", -0.68],
  ["CNC(=O)c1cncc(/C=C/c2c(C)cccc2C)c1", 0.76],
  ["COc1ccc(C2=C(N3CCc4ccccc43)C(=O)NC2=O)cc1", 5.71],
  ["COc1ccc2cc(-c3c(-c4ccncc4)nc(-c4ccc([S+](C)[O-])cc4C)n3C)ccc2c1 (stereo not given)", -1.26],
  ["CCc1ccc(Oc2nccc(-c3c(-c4ccc(F)cc4)ncn3C3CCNCC3)n2)cc1", 8.13],
  ["O=C1Nc2ccc(I)cc2C1=Cc1cc(Br)c(O)c(Br)c1", 2.5],
  ["COc1cc(Nc2ncc(-c3ccccc3)o2)cc(OC)c1OC", -0.9]
]}
